Data provenance is patent US20210261561A1.

Target: BACE1 (Homo sapiens, UniProt P56817)
Sequence (P56817 46-501): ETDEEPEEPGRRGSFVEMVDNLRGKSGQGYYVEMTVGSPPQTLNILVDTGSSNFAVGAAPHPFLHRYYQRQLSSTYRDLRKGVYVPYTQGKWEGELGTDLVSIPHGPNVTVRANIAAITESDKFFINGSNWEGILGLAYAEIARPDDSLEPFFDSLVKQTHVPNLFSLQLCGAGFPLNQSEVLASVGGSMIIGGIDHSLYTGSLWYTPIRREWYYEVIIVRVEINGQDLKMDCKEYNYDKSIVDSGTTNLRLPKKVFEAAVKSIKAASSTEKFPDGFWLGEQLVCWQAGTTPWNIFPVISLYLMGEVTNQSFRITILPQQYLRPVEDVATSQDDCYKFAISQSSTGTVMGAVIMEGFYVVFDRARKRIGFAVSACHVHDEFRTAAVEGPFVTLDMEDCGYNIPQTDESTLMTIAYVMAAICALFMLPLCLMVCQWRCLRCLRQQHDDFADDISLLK
Procedure text: BACE1 biochemical FRET based assay (Test Example 2-1)
Protocol conditions: FRET, 0.04 μg/mL BACE1, 450 minutes, Citrate buffer pH 5.0
Experimental readout: IC50 (nM)

Please review the following examples before continuing.
Structure	Target	Experimental readout	Endpoint value
NC1=N[C@](CF)(c2cc(NC(=O)c3cc4c(cn3)OC(F)(F)O4)ccc2F)[C@H]2COCC[C@H]2O1	BACE1 (Homo sapiens, UniProt P56817)	IC50	13.2
NC1=N[C@](CF)(c2cc(NC(=O)c3cc4c(cn3)OC(F)(F)CO4)ccc2F)[C@H]2CCOC[C@H]2O1	BACE1 (Homo sapiens, UniProt P56817)	IC50	8.32
C[C@H]1OC[C@H]2OC(N)=N[C@](CF)(c3cc(NC(=O)c4cc5c(cn4)OC(F)(F)CO5)ccc3F)[C@@H]12	BACE1 (Homo sapiens, UniProt P56817)	IC50	2.24
[2H]C1([2H])Oc2cnc(C(=O)Nc3ccc(F)c([C@]4(C)CS(=O)(=O)N(C)C(N)=N4)c3)cc2OC1([2H])[2H]	BACE1 (Homo sapiens, UniProt P56817)	IC50	1.2
NC1=N[C@](CF)(c2cc(NC(=O)c3cc4c(cn3)OC(F)(F)CO4)ccc2F)[C@H]2CO[C@H](CF)C[C@H]2O1	BACE1 (Homo sapiens, UniProt P56817)	IC50	2.57

I = C[C@H]1OC[C@H]2[C@@H]1OC(N)=N[C@]2(CF)c1cc(NC(=O)c2cc3c(cn2)OC(F)(F)O3)ccc1F
II = CN1C(N)=N[C@](C)(c2cc(NC(=O)c3cc4c(cn3)O[C@H](F)CO4)ccc2F)CS1(=O)=O
III = CN1C(N)=N[C@](C)(c2cc(NC(=O)c3cc4c(cn3)OCCO4)ccc2F)CS1(=O)=O
IN: Ordering: ascending IC50. Hello, could you send the labels back in the order asked? Thank you.
OUT: II, III, I

====

Target: BACE1 (Homo sapiens, UniProt P56817)
Procedure text: BACE1 biochemical FRET based assay (Test Example 2-1)
Protocol conditions: BACE2 IC50 over BACE1 IC50 (FRET)
Experimental readout: selectivity

Structure	selectivity
NC1=N[C@](CF)(c2cc(NC(=O)c3cc4c(cn3)OCCO4)ccc2F)[C@H]2COCC[C@H]2O1	447
C[C@H]1OC[C@H]2OC(N)=N[C@](CF)(c3cc(NC(=O)c4cc5c(cn4)OC(F)(F)CO5)ccc3F)[C@@H]12	218
CC1(C)C(N)=N[C@](C)(c2cc(NC(=O)c3cc4c(cn3)OCCO4)ccc2F)CS1(=O)=O	64.5
CN1C(N)=N[C@](C)(c2cc(NC(=O)c3ncc4c(c3Cl)OCCO4)ccc2F)CS1(=O)=O	40.7
NC1=N[C@](CF)(c2cc(NC(=O)c3cc4c(cn3)OC(F)(F)O4)ccc2F)[C@H]2COCC[C@H]2O1	166

1 = C[C@H]1OC[C@H]2[C@@H]1OC(N)=N[C@]2(CF)c1cc(NC(=O)c2cc3c(cn2)OC(F)(F)O3)ccc1F
2 = CN1C(N)=N[C@](C)(c2cc(NC(=O)c3cc4c(cn3)OC[C@H](F)O4)ccc2F)CS1(=O)=O
IN: // pick min by selectivity: 1 , 2 Pick one; state its label.
OUT: 2
(2: 28.8, 1: 199)

====

Target: BACE1 (Homo sapiens)
Procedure text: BACE1 cellular αLisa assay in SKNBE2 cells, Abeta 1-42 (Test Example 2-3)
Type: cell-based
Design: endogenous in cells; host or cells: SKNBE2 human neuroblastoma cells expressing hAPP695
Protocol conditions: SKNBE2 cells expressing hAPP695, 18 hours incubation, read-out: Cellular αLisa assay in SKNBE2 cells Abeta 42 pIC50 (converted)
Experimental readout: IC50 (nM)

// solved cases for IC50 follow
Compound	IC50, nM
CC1(S(C)(=O)=O)CCC(CF)(c2cc(NC(=O)c3ncc4c(c3Cl)OCCO4)ccc2F)N=C1N (stereo not drawn)	15.5
CCS(=O)(=O)[C@]1(CF)CC[C@@](C)(c2cc(NC(=O)c3cc4c(cn3)OC(F)(F)O4)ccc2F)N=C1N	9.77
CC1(S(C)(=O)=O)CCC(CF)(c2cc(NC(=O)c3cc4c(cn3)OCCO4)ccc2F)N=C1N (stereo not drawn)	2.95
CC1(S(C)(=O)=O)CCC(CF)(c2cc(NC(=O)c3ncc4c(n3)OCCO4)cc(F)c2F)N=C1N (stereo not drawn)	19.5
CC1(S(C)(=O)=O)CCC(CF)(c2cc(NC(=O)c3cc4c(cn3)OCC(F)O4)ccc2F)N=C1N (stereo not drawn)	3.55
[2H]C1([2H])Oc2cnc(C(=O)Nc3ccc(F)c(C4(C)CCC(CF)(S(=O)(=O)CC)C(N)=N4)c3)cc2OC1([2H])[2H] (stereo not drawn)	5.25
CCS(=O)(=O)C1(C)CCC(CF)(c2cc(NC(=O)c3cc4c(cn3)OC(F)(F)CO4)ccc2F)N=C1N (stereo not drawn)	2.29
CCS(=O)(=O)C1(C)CCC(CF)(c2cc(NC(=O)c3cc4c(cn3)OC(F)(F)O4)cc(F)c2F)N=C1N (stereo not drawn)	4.47
C[C@@]1(S(C)(=O)=O)CC[C@@](CF)(c2cc(NC(=O)c3cc4c(cn3)OC(F)(F)O4)ccc2F)N=C1N [II-6]	6.46
[2H]C1([2H])Oc2cnc(C(=O)Nc3cc(F)c(F)c(C4(CF)CCC(C)(S(C)(=O)=O)C(N)=N4)c3)cc2OC1([2H])[2H] (stereo not drawn)	6.46

A = CC1(S(C)(=O)=O)CCC(CF)(c2cc(NC(=O)c3ncc4c(c3F)OCC(F)(F)O4)ccc2F)N=C1N (stereo not drawn)
B = CC(C)S(=O)(=O)C1(C)CCC(CF)(c2cc(NC(=O)c3cc4c(cn3)OC(F)(F)CO4)ccc2F)N=C1N (stereo not drawn)
IN: Which of these two has the smaller recorded IC50: A or B ? State the label of the item chosen.
OUT: B

====

Target: BACE1 (Homo sapiens, UniProt P56817)
Procedure text: BACE1 biochemical FRET based assay - Method 1 (Test Example 2-2)
Protocol conditions: 0.04 μg/mL BACE1, 450 minutes, Citrate buffer pH 5.0, read-out: BACE1 Biochemical FRET based assay - Method 1 PIC50 (converted)
Description: This assay is a Fluorescence Resonance Energy Transfer Assay (FRET) based assay. […] Upon cleavage by BACE1, the fluorophore Mca is separated from the quenching group Dnp, restoring the full fluorescence yield of the donor. The increase in fluorescence is linearly related to the rate of proteolysis. […] Data are analysed using Screener (Registered trademark) (Genedata, Switzerland). […]
Experimental readout: IC50 (nM)

Compound	IC50 / nM
CC1(S(C)(=O)=O)CCC(CF)(c2cc(NC(=O)c3cc4c(cn3)OC(F)(F)O4)cc(F)c2F)N=C1N (stereo not shown) [II-18]	3.24
CC1(c2cc(NC(=O)c3cc4c(cn3)OC(F)(F)O4)ccc2F)CCC(CF)(S(C)(=O)=O)C(N)=N1 (stereo not shown) [II-32]	17.8

1 = [2H]C1([2H])Oc2cnc(C(=O)Nc3cc(F)c(F)c(C4(CF)CCC(C)(S(C)(=O)=O)C(N)=N4)c3)cc2OC1([2H])[2H] (stereo not shown) [II-16]
2 = C[C@@]1(c2cc(NC(=O)c3cc4c(cn3)OC(F)(F)O4)ccc2F)CC[C@@](C)(S(=O)(=O)C(F)(F)F)C(N)=N1 [II-29]
IN: When their IC50 values are compared, which is larger, 1 or 2 ? Your answer should be the label of the entry you select.
OUT: 2
(2: 5.89 nM, 1: 2.45 nM)

====

Target: CYP3A4 (Homo sapiens)
Construct: from tissue; host or cells: pooled human liver microsomes
Sequence (P08684 whole entry): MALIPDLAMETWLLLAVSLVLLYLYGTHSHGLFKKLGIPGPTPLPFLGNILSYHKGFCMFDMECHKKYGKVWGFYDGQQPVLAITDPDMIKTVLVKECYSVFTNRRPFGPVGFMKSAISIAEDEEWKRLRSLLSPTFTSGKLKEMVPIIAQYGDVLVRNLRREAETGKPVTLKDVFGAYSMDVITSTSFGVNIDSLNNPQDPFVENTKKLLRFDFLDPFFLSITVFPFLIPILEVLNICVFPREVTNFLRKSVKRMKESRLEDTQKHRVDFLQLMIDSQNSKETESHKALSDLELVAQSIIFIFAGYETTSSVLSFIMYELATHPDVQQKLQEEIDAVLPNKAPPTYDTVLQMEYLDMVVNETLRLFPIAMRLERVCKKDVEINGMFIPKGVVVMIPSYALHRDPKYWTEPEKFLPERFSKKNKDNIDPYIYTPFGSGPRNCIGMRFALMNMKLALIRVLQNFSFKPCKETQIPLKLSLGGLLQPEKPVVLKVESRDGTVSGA
Procedure text: CYP3A4(MDZ) MBI test (Test Example 4-2)
Format: in vitro ADME
Protocol conditions: pooled human liver microsomes, 10 μmol/L MDZ, pre-reaction 0 or 30 minutes; shifted IC value
Experimental readout: MBI MDZ

Example compounds with recorded MBI MDZ:
Compound	MBI MDZ
CN1C(N)=N[C@](C)(c2cc(NC(=O)c3cc4c(cn3)OC(F)(F)CO4)ccc2F)CS1(=O)=O [Compound I-011]	Negative
[2H]C1([2H])Oc2cnc(C(=O)Nc3ccc(F)c([C@]4(C)CS(=O)(=O)C(C)(C)C(N)=N4)c3)cc2OC1([2H])[2H] [Compound I-026]	Negative
NC1=N[C@](CF)(c2cc(NC(=O)c3cc4c(cn3)OC(F)(F)CO4)ccc2F)[C@H]2CCOC[C@H]2O1 [Compound I-046]	Negative
NC1=N[C@](CF)(c2cc(NC(=O)c3cc4c(cn3)OC(F)(F)O4)ccc2F)[C@H]2COCC[C@H]2O1 [Compound I-036]	Negative
C[C@H]1OC[C@H]2[C@@H]1OC(N)=N[C@]2(CF)c1cc(NC(=O)c2cc3c(cn2)OC(F)(F)CO3)ccc1F [Compound I-049]	Negative

So the reported MBI MDZ for CN1C(N)=N[C@](C)(c2cc(NC(=O)c3cc4c(cn3)OC(F)(F)O4)ccc2F)CS1(=O)=O [Compound I-012] , on CYP3A4 (Homo sapiens), turned out to be Negative

MBI MDZ value, target or system CYP3A4 (Homo sapiens), for CC1(C)C(N)=N[C@](C)(c2cc(NC(=O)c3cc4c(cn3)OC(F)(F)CO4)ccc2F)CS1(=O)=O [Compound I-024] : Negative

NC1=N[C@](CF)(c2cc(NC(=O)c3cc4c(cn3)OC(F)(F)CO4)ccc2F)[C@H]2COCC[C@H]2O1 [Compound I-035] tested on CYP3A4 (Homo sapiens) gave MBI MDZ: Negative

I looked up CC1(C)C(N)=N[C@](C)(c2cc(NC(=O)c3cc4c(cn3)OC(F)(F)O4)ccc2F)CS1(=O)=O [Compound I-027] and its MBI MDZ for CYP3A4 (Homo sapiens) was Negative
